measurement-target: Histone deacetylase 1 (Homo sapiens, UniProt Q13547)
Sequence (Q13547 whole entry): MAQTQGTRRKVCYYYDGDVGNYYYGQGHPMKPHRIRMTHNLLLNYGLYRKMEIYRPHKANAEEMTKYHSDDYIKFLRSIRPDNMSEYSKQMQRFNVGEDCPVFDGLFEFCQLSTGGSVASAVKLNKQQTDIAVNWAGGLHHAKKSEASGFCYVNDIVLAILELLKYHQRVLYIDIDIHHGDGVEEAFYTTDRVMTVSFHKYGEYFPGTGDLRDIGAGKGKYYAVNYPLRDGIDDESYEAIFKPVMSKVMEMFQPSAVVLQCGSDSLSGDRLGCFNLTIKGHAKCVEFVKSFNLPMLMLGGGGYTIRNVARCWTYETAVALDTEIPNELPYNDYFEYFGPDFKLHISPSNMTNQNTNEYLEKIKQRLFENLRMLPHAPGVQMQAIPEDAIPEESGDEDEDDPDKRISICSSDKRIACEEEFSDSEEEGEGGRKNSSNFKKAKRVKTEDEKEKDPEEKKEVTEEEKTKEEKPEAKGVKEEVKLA
measurement-protocol: Inhibition of recombinant human full length C-terminal FLAG/His-tagged HDAC1 expressed in Sf9 insect cells using ZMAL (Z-(Ac)Lys-AMC as substrate measured after 90 mins by fluorescence plate reader analysis
readout-kind: pIC50
In plain terms, pIC50 is the concentration in mol/L turned into minus its base-10 logarithm.

Known pIC50 results, listed for orientation:
compound="O=C(NO)c1ccc(CC(=O)N2CCC(N3C(=O)[C@H](c4ccccc4)[C@H]3c3ccccc3)CC2)cc1 (racemic)" assay_result=5.29
compound="O=C(NO)c1ccc(CNC(=O)N2CCC(N3C(=O)[C@H](c4ccccc4)[C@H]3c3ccccc3)CC2)cc1 (racemic)" assay_result=5.38
compound="Cc1cccc(C2CC(=O)N2C2CCN(C(=O)NCc3ccc(C(=O)NO)cc3)CC2)c1 (racemic)" assay_result=5.51

Tell me its pIC50 given "O=C(NO)c1ccc(CNC(=O)N2CCC(N3CC(c4ccccc4)(c4ccccc4)C3=O)CC2)cc1" as the entry.
5.37
